So I've got a bunch of compounds here, and I need their Partial pressure of 2,2,2-trifluoroethanol values.
# Test description: Absorption isotherm: partial pressure of 2,2,2-trifluoroethanol over sorbent material at 70° C.
# Format: physicochemical
# Run parameters: mass fraction of ionic liquid 0.40
Answers are plain numbers, in kPa.

Some solved cases for reference:
                                   compound  val
0  CCCC[n+]1ccc(C)cc1.[Cl-] [MBP Cl, 1-butyl-4-methylpyridinium chloride]  5.0
1                     CCn1cc[n+](C)c1.[Cl-]  4.0

Identify the reported Partial pressure of 2,2,2-trifluoroethanol for the following entry. CCCCn1cc[n+](C)c1.F[B-](F)(F)F [BMIM BF4, reference compound]
53.0

====

# Test description: Absorption isotherm: partial pressure of 2,2,2-trifluoroethanol over sorbent material at 70° C.
# Format: physicochemical
# Run parameters: mass fraction of ionic liquid 0.20
For each record, write down the corresponding Partial pressure of 2,2,2-trifluoroethanol.
Give bare numbers, in kPa.

Solved cases below.
                                   compound  units_of_measure   val
0           C[N+](C)(CCO)CCO.[Cl-] [Salt A]               kPa  33.0
1  CCCCn1cc[n+](C)c1.F[B-](F)(F)F [BMIM BF4, reference compound]               kPa  70.2
2           CCn1cc[n+](C)c1.[Cl-] [EMIM Cl]               kPa  19.3

Moving on to another compound below.
Find the measured Partial pressure of 2,2,2-trifluoroethanol of CS(=O)(=O)[O-].C[N+](C)(CCO)CCO [Salt B] and report it.
42.0
